These measurements were taken from patent US9963442B2.

System: pigweed (Amaranthus retroflexus)
Experiment: Test A postemergence application
Assay type: in vivo
Settings: 31 g ai/ha, approx. 10 days
readoutType: Plant response rating (0 to 100 scale, 0 no effect, 100 complete control), Pigweed

O=c1cccc(Oc2ncc(Cl)cn2)n1-c1ccc(F)cn1 : 50
O=c1cccc(Oc2ncc(Cl)cn2)n1-c1ncc(F)cn1 : 50
O=c1cccc(Oc2ncc(Cl)cn2)n1-c1ccc(Cl)cn1 : 80
O=c1cccc(Oc2ncc(Cl)cn2)n1-c1ccc(C(F)(F)F)cc1 : 70
O=c1cccc(Oc2ncc(Cl)cn2)n1-c1ncc(C(F)(F)F)cn1 : 70
O=c1cccc(Oc2ncc(Cl)cn2)n1-c1ncc(Cl)cn1 : 80
O=c1cccc(Oc2ncc(Cl)cn2)n1-c1ccc(C(F)(F)F)cn1 : 70
